Listed molecules paired with reported TGI
System: MDA-MB-468 breast
Assay: NCI tumour cell line growth inhibition, 48 h
Assay Metric: TGI (µM)

1) COc1cc(C(=O)n2nc(N3CCN(C)CC3)c3cc(N)ccc32)cc(OC)c1OC    9.38
2) COc1cnc2c(c1)C(=O)c1c-2n(CCCN2CCN(C)CC2)c(=O)c2cc(Cl)ccc12    14.8
3) CN(C)CC1CCn2c(c(C3=C(c4cn(C)c5ccccc45)C(=O)NC3=O)c3ccccc32)C1 (configuration not stated)    7.57
4) COc1cccc2c1c1nc3cc(C)c(C)cc3nc1n2CCN(C)C    4.14
5) CO[C@H](C(=O)N[C@@H](CCCCNC(=O)OCc1ccccc1)C(=O)OC(C)(C)C)[C@@H]1Cc2cc3cc(OC4CC(OC5CC(O)C(O)C(C)O5)C(O)C(C)O4)c(C)c(O)c3c(O)c2C(=O)[C@H]1OC1CC(OC2CC(OC3CC(C)(O)C(O)C(C)O3)C(O)C(C)O2)C(O)C(C)O1 (some centres not stated)    2.92
6) CO[C@H]1CC[C@@]2(C)C(=CC[C@H]3[C@@H]4C[C@H](O)C[C@@]4(C)CC[C@@H]32)C1    9.07
7) C=C[C@]1(C)C=C2C(=O)[C@@]3(O)OC(=O)[C@@]4(CCCC(C)(C)[C@H]34)[C@@]2(O)CC1    2

====

Tested on: MDA-MB-468 breast
Assay: NCI tumour cell line growth inhibition, 48 h
Assay Metric: TGI (µM)

1) COc1ccc(F)cc1C(=O)c1cnc(NC2CCN(S(C)(=O)=O)CC2)nc1N    9.87
2) [N-]=[N+]=CC(=O)OCC(N)C(=O)O (stereo not given)    11.1
3) Cc1ccc2sc3c(NCCCNCCO)nc4ccccc4c3c(=O)c2c1    3.16

====

Tested on: MDA-MB-468 breast
Assay: NCI tumour cell line growth inhibition, 48 h; in the data active = GI50 below about 0.43 µM; inactive = the rest
Classes used: TRUE for active, FALSE for inactive

1. Cn1cc(C2=C(c3c4n(c5ccccc35)CCC(CN)CC4)C(=O)NC2=O)c2ccccc21 (centres undefined)    FALSE
2. CN(C)CC1CCn2c(c(C3=C(c4cn(C)c5ccccc45)C(=O)NC3=O)c3ccccc32)C1 (centres undefined)    FALSE
3. Cc1ccc(NC(=O)c2ccnc(N3CCCC3)c2)cc1-c1ccc(C(=O)NCC2CC2)cc1    FALSE
4. COc1ccc(F)cc1C(=O)c1cnc(NC2CCN(S(C)(=O)=O)CC2)nc1N    FALSE
5. O=C1/C(=C/c2ccc(Cl)cc2)CN(C(=O)C(Cl)Cl)C/C1=C\c1ccc(Cl)cc1    TRUE
6. CCCCCc1ccc(S(=O)(=O)Nc2cc(-c3csc(NC(=O)CN4CCN(C)CC4)n3)ccc2N2CCN(C)CC2)cc1    FALSE
7. Cc1ccc(S(=O)(=O)n2cc(C(=O)C(=O)Nc3ccncc3)c3ccccc32)cc1    FALSE
8. Clc1ccccc1Nc1nnc(-c2c[nH]c3ccccc23)o1    FALSE
9. CCOC(=O)c1c(Cl)c2c(n1Cc1cc(OC)cc(OC)c1)-c1oncc1CCC2    FALSE
